- Test system: anti-MTBE antibody prepared in Example 1 (anti-MTBE/7-methoxy-3,7-dimethyloctanal antibody)
- assay_protocol: Anti-MTBE monoclonal antibody cross-reactivity, indirect competitive ELISA
- Type: binding
- condition_details: B/B0=50%, read from FIG. 4
Structures can show the parent of a compound that is named as a salt.
Listed here are molecules together with their documented IC50 (concentration of analyte required to inhibit the maximum assay signal B0 by 50%).
measured_attribute: IC50 (concentration of analyte required to inhibit the maximum assay signal B0 by 50%)

- molecule: "CCC(C)(C)OC"
  obs_value: "~10 µg/mL"
- molecule: "CC(C)(C)O"
  obs_value: "~180 µg/mL"
- molecule: "COC(C)(C)C"
  obs_value: "~10 µg/mL"
- molecule: "CC(C)(C)OC=O [TBF, tert-butyl formate]"
  obs_value: "~60 µg/mL"
